Values from the CheMixHub drug solubility set

# Method Description: xn = mol fraction of the nth substance listed, in the solute-free solvent
# Study Conditions: 308.15 K; x2 = 0.5454
Classification field: criterion met = solubility (g/100 g solution) at or over 0.2; criterion not met = solubility (g/100 g solution) under 0.2.

Would you please look over these solved cases?
> print(dat)
                                   compound              group
1     O=C1C=CC(=O)N1c1ccccc1Br + CC(C)O + O      criterion met
2  CC(C)C(=O)Nc1ccc([N+](=O)[O-])c(C(F)(F)F)c1 + CC(C)O + O      criterion met
3     O=c1cc(CBr)c2ccccc2[nH]1 + CC(C)O + O  criterion not met
4              Nc1ncc(Br)nc1Br + CC(C)O + O      criterion met

Okay, now this compound:
Q: Hi, just wondering whether O=c1cc(CBr)c2ccccc2[nH]1 + CCCO + O shows solubility (g/100 g solution) of 0.2 or higher.
Ans: criterion not met

* * *

# Method Description: xn = mol fraction of the nth substance listed, in the solute-free solvent
# Study Conditions: 303.15 K; x2 = 0.1436
Consider the following molecules and their measured solubility (g/100 g solution) readings.

> print(dat)
                                   molecule  observed.measurement
1        O=C1C=CC(=O)N1c1ccccc1Br + CCO + O                   4.8
2        O=c1cc(CBr)c2ccccc2[nH]1 + CCO + O                0.0906
3  CC(C)C(=O)Nc1ccc([N+](=O)[O-])c(C(F)(F)F)c1 + CCO + O                 0.246
4       Nc1cc(-c2ccncc2)c[nH]c1=O + CCO + O               0.00549

With those in mind, consider the next molecule.
Q: Given the molecule Nc1ncc(Br)nc1Br + CCO + O , what is its reported solubility (g/100 g solution)?
Ans: 0.245

* * *

Reported solubility (g/100 g solution) values are given for each entry in this list.
# Method Description: xn = mol fraction of the nth substance listed, in the solute-free solvent
# Study Conditions: 288.15 K; x2 = 0.1436
Give only the figure.

Completed entries (count: 4):
> print(dat)
                                   compound                   readout.type  observed.measurement
1        O=c1cc(CBr)c2ccccc2[nH]1 + CCO + O  solubility (g/100 g solution)                0.0509
2                 Nc1ncc(Br)nc1Br + CCO + O  solubility (g/100 g solution)                 0.171
3  CC(C)C(=O)Nc1ccc([N+](=O)[O-])c(C(F)(F)F)c1 + CCO + O  solubility (g/100 g solution)                 0.124
4        O=C1C=CC(=O)N1c1ccccc1Br + CCO + O  solubility (g/100 g solution)                  2.65

Q: Any idea what solubility (g/100 g solution) was measured for Nc1cc(-c2ccncc2)c[nH]c1=O + CCO + O ?
Ans: 0.00354

* * *

# Method Description: xn = mol fraction of the nth substance listed, in the solute-free solvent
# Study Conditions: 293.15 K; x2 = 0.08908
Readout Type: solubility (g/100 g solution)
Write the value as a bare number.

Worked set:
> print(dat)
                                   compound                   readout.type  observed.measurement
1  CC(C)C(=O)Nc1ccc([N+](=O)[O-])c(C(F)(F)F)c1 + CCO + O  solubility (g/100 g solution)                0.0388
2       Nc1cc(-c2ccncc2)c[nH]c1=O + CCO + O  solubility (g/100 g solution)               0.00288
3        O=C1C=CC(=O)N1c1ccccc1Br + CCO + O  solubility (g/100 g solution)                  1.93
4        O=c1cc(CBr)c2ccccc2[nH]1 + CCO + O  solubility (g/100 g solution)                0.0455

Shift focus to the following entry.
Q: Look at this compound and give its reported solubility (g/100 g solution). Nc1ncc(Br)nc1Br + CCO + O
Ans: 0.102

* * *

solubility (g/100 g solution) for assorted molecules
# Method Description: xn = mol fraction of the nth substance listed, in the solute-free solvent
# Study Conditions: 293.15 K; x2 = 0.04165
Hey, just send me the number, nothing else.

Recorded results for 3 molecules are shown here.
> print(dat)
                                   molecule                   readout.type  observed.measurement
1        O=C1C=CC(=O)N1c1ccccc1Br + CCO + O  solubility (g/100 g solution)                  1.08
2                 Nc1ncc(Br)nc1Br + CCO + O  solubility (g/100 g solution)                0.0345
3  CC(C)C(=O)Nc1ccc([N+](=O)[O-])c(C(F)(F)F)c1 + CCO + O  solubility (g/100 g solution)               0.00623

Q: What value of measured solubility (g/100 g solution) is listed for Nc1cc(-c2ccncc2)c[nH]c1=O + CCO + O ?
Ans: 0.00187

Q: Now give it for O=c1cc(CBr)c2ccccc2[nH]1 + CCO + O too.
Ans: 0.0295

* * *

# Method Description: xn = mol fraction of the nth substance listed, in the solute-free solvent
# Study Conditions: 283.15 K; x2 = 0.3103
solubility (g/100 g solution): recorded values

Q: Dear colleague, I am looking for the recorded solubility (g/100 g solution) of the following molecule: CC(C)C(=O)Nc1ccc([N+](=O)[O-])c(C(F)(F)F)c1 + CC(C)O + O
Ans: 4.25

Q: Follow-up entry: O=C1C=CC(=O)N1c1ccccc1Br + CC(C)O + O
Ans: 4.18

Q: Here is the next molecule: Nc1ncc(Br)nc1Br + CC(C)O + O
Ans: 0.178

Q: Let us now turn to O=c1cc(CBr)c2ccccc2[nH]1 + CCCO + O
Ans: 0.103

Q: For O=c1cc(CBr)c2ccccc2[nH]1 + CC(C)O + O then?
Ans: 0.0689

* * *

# Method Description: xn = mol fraction of the nth substance listed, in the solute-free solvent
# Study Conditions: 283.15 K; x2 = 0.4
Readout Type: solubility (g/100 g solution)
API doc: respond with a numeric literal and nothing else, no unit.

Q: Query (compound): CC(C)C(=O)Nc1ccc([N+](=O)[O-])c(C(F)(F)F)c1 + C1CCOC1 + CC(C)O ; field requested: solubility (g/100 g solution)
Ans: 43.2

Q: Same again, this time with Cl.NC1CCSC1=O (centres undefined) + CO + CC#N
Ans: 1.98

Q: What about CC(C)C(=O)Nc1ccc([N+](=O)[O-])c(C(F)(F)F)c1 + CC(C)=O + CC(C)O ?
Ans: 42.4

Q: What do you have for CC(C)C(=O)Nc1ccc([N+](=O)[O-])c(C(F)(F)F)c1 + CCOC(C)=O + CC(C)O ?
Ans: 36.3

* * *

# Method Description: xn = mol fraction of the nth substance listed, in the solute-free solvent
# Study Conditions: 323.15 K; x2 = 0.2812
Catalogue of solubility (g/100 g solution) readings, one per entry.
Give only the figure.

Some entries whose results are on file:
> print(dat)
                                   molecule                   readout.type  observed.measurement
1                 Nc1ncc(Br)nc1Br + CCO + O  solubility (g/100 g solution)                 0.661
2  CC(C)C(=O)Nc1ccc([N+](=O)[O-])c(C(F)(F)F)c1 + CCO + O  solubility (g/100 g solution)                  4.58

Q: Requested field: solubility (g/100 g solution). Item: Nc1cc(-c2ccncc2)c[nH]c1=O + CCO + O
Ans: 0.0179

Q: Then this molecule: O=C1C=CC(=O)N1c1ccccc1Br + CCO + O
Ans: 16.5

* * *

# Method Description: xn = mol fraction of the nth substance listed, in the solute-free solvent
# Study Conditions: 288.15 K; x2 = 0.6101
solubility (g/100 g solution) values by entry
Answer with a bare number; do not write a unit.

Below, 4 compounds whose answers are already recorded.
> print(dat)
                                   compound  observed.measurement
1                 Nc1ncc(Br)nc1Br + CCO + O                 0.476
2       Nc1cc(-c2ccncc2)c[nH]c1=O + CCO + O                 0.013
3  CC(C)C(=O)Nc1ccc([N+](=O)[O-])c(C(F)(F)F)c1 + CCO + O                  12.3
4        O=C1C=CC(=O)N1c1ccccc1Br + CCO + O                  7.78

Q: Which solubility (g/100 g solution) is listed for O=c1cc(CBr)c2ccccc2[nH]1 + CCO + O ?
Ans: 0.116
